Reference for the values: the supplement of paper PMC7877785

Experiment: self-splicing fitness, log relative to wild type (ln ratio); higher = more splicing; Tetrahymena group I intron in knt gene, E. coli kanamycin selection, DiMSum; sequences stand for … in CUCUCU…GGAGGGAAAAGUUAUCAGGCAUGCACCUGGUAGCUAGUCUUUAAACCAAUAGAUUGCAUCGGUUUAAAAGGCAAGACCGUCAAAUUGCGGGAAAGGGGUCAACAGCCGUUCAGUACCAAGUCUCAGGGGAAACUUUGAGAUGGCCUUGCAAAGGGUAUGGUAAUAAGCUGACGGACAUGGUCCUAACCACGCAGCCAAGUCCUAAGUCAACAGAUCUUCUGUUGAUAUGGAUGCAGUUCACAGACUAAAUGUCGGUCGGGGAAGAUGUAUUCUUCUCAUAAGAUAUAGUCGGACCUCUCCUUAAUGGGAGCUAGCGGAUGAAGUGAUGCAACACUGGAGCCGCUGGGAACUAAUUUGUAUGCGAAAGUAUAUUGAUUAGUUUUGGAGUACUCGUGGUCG;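 also: selection with 25 µg/mL kanamycin versus none on LB agar overnight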
Details: 37 °C

>  <primarySequence>
UUUAAGCAAUAUUACGUGGU

>  <self-splicing fitness (ln)>
-2.62

$$$$
>  <primarySequence>
GGUAAGCAAUAUUACGUCCA

>  <self-splicing fitness (ln)>
-0.817

$$$$
>  <primarySequence>
AGACAGCAAUAUUACGCGGA

>  <self-splicing fitness (ln)>
-1.58

$$$$
>  <primarySequence>
UUAGAGCAAUAUUACGUCCG

>  <self-splicing fitness (ln)>
-1.99

$$$$
>  <primarySequence>
CCACAGCAAUAUUACGACCU

>  <self-splicing fitness (ln)>
-2.82

$$$$
>  <primarySequence>
CUAAAGCAAUAUUACGAGGA

>  <self-splicing fitness (ln)>
-1.62

$$$$
>  <primarySequence>
AUCCAGCAAUAUUACGGUAG

>  <self-splicing fitness (ln)>
-2.6

$$$$
>  <primarySequence>
GCCAAGCAAUAUUACGCAAU

>  <self-splicing fitness (ln)>
-0.812

$$$$

----------
Assay: self-splicing fitness, log relative to wild type (ln ratio); higher = more splicing; Tetrahymena group I intron in knt gene, E. coli kanamycin selection, DiMSum; sequences stand for … in CUCUCU…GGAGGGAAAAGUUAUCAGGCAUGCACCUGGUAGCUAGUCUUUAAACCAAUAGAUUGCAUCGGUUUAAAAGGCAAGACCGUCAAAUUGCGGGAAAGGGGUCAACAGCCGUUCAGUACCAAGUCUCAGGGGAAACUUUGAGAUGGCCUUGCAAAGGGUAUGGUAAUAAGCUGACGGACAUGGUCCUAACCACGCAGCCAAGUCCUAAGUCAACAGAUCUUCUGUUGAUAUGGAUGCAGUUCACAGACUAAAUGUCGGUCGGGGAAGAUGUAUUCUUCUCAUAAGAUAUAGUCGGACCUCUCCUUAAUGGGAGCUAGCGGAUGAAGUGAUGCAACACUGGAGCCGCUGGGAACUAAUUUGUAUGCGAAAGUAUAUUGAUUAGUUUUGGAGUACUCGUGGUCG
Details: 37 °C
recordedMetric: self-splicing fitness (ln)

>  <primarySequence>
UUGCAGCAAUAUUACGUUAA

>  <recordedMetric>
self-splicing fitness (ln)

>  <resultNumber>
-0.515

$$$$
>  <primarySequence>
UCCAAGCAAUAUUACGAAAC

>  <recordedMetric>
self-splicing fitness (ln)

>  <resultNumber>
-2.95

$$$$
>  <primarySequence>
CCGCAGCAAUAUUACGGCGA

>  <recordedMetric>
self-splicing fitness (ln)

>  <resultNumber>
-0.544

$$$$
>  <primarySequence>
GACCAGCAAUAUUACGGACC

>  <recordedMetric>
self-splicing fitness (ln)

>  <resultNumber>
-2.38

$$$$
>  <primarySequence>
UUGCAGCAAUAUUACGCAAC

>  <recordedMetric>
self-splicing fitness (ln)

>  <resultNumber>
-2.11

$$$$
>  <primarySequence>
AAACAGCAAUAUUACGAUGA

>  <recordedMetric>
self-splicing fitness (ln)

>  <resultNumber>
-0.0116

$$$$
>  <primarySequence>
GACAAGCAAUAUUACGGCCA

>  <recordedMetric>
self-splicing fitness (ln)

>  <resultNumber>
-0.192

$$$$
>  <primarySequence>
UGCUAGCAAUAUUACGUACU

>  <recordedMetric>
self-splicing fitness (ln)

>  <resultNumber>
-0.893

$$$$
>  <primarySequence>
UGCUAGCAAUAUUACGCUUA

>  <recordedMetric>
self-splicing fitness (ln)

>  <resultNumber>
-0.517

$$$$
>  <primarySequence>
CGGUAGCAAUAUUACGGGAG

>  <recordedMetric>
self-splicing fitness (ln)

>  <resultNumber>
-1.71

$$$$
>  <primarySequence>
GACCAGCAAUAUUACGUUUC

>  <recordedMetric>
self-splicing fitness (ln)

>  <resultNumber>
-0.568

$$$$
>  <primarySequence>
UAUGAGCAAUAUUACGUGUA

>  <recordedMetric>
self-splicing fitness (ln)

>  <resultNumber>
-1.32

$$$$
>  <primarySequence>
UCAGAGCAAUAUUACGAUCU

>  <recordedMetric>
self-splicing fitness (ln)

>  <resultNumber>
-2.88

$$$$
>  <primarySequence>
GUCGAGCAAUAUUACGAUCG

>  <recordedMetric>
self-splicing fitness (ln)

>  <resultNumber>
-1.38

$$$$
>  <primarySequence>
GCAGAGCAAUAUUACGGUGG

>  <recordedMetric>
self-splicing fitness (ln)

>  <resultNumber>
-2.21

$$$$
>  <primarySequence>
GUUUAGCAAUAUUACGGCAU

>  <recordedMetric>
self-splicing fitness (ln)

>  <resultNumber>
-0.182

$$$$

----------
Each entry below carries its recorded self-splicing fitness (ln).
Test: self-splicing fitness, log relative to wild type (ln ratio); higher = more splicing; Tetrahymena group I intron in knt gene, E. coli kanamycin selection, DiMSum; sequences stand for … in CUCUCU…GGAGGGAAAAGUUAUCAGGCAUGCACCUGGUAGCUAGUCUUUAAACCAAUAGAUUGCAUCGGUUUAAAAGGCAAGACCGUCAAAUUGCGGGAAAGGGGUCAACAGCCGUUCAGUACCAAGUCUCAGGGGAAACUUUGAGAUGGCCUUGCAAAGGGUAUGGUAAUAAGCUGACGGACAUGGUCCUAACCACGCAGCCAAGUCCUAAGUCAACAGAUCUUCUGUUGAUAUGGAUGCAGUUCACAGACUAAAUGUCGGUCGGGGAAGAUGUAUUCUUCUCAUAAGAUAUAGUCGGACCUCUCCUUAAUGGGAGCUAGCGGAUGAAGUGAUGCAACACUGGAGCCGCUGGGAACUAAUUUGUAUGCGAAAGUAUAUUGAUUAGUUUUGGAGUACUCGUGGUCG
Settings: 37 °C

>  <primarySequence>
CAUCAGCAAUAUUACGGUCU

>  <self-splicing fitness (ln)>
-2.22

$$$$
>  <primarySequence>
CAAUAGCAAUAUUACGAAAG

>  <self-splicing fitness (ln)>
-0.294

$$$$
>  <primarySequence>
CCUAAGCAAUAUUACGACUU

>  <self-splicing fitness (ln)>
-2.4

$$$$
>  <primarySequence>
AACGAGCAAUAUUACGCAGU

>  <self-splicing fitness (ln)>
-2.52

$$$$
>  <primarySequence>
CAGAAGCAAUAUUACGAUAU

>  <self-splicing fitness (ln)>
-2.53

$$$$
>  <primarySequence>
AGCCAGCAAUAUUACGUAGA

>  <self-splicing fitness (ln)>
-1.84

$$$$
>  <primarySequence>
UUCAAGCAAUAUUACGCGAA

>  <self-splicing fitness (ln)>
-1.47

$$$$
>  <primarySequence>
AAGCAGCAAUAUUACGUUAC

>  <self-splicing fitness (ln)>
-1.35

$$$$

----------
Assay: self-splicing fitness, log relative to wild type (ln ratio); higher = more splicing; Tetrahymena group I intron in knt gene, E. coli kanamycin selection, DiMSum; sequences stand for … in CUCUCU…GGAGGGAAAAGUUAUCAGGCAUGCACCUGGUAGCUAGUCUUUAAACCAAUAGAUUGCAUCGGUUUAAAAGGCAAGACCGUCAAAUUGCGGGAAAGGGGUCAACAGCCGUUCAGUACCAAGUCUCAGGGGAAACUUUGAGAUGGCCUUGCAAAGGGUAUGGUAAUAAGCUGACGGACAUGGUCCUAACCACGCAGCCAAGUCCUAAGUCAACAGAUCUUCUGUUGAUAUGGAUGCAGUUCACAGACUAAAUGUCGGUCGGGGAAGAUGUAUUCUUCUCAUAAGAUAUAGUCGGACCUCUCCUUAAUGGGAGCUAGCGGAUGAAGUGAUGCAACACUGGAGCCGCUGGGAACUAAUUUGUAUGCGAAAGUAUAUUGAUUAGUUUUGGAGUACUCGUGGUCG
Conditions: 37 °C
Reported self-splicing fitness (ln) maps to class as: bin 0: < -2; bin 1: ≥ -2 and < -0.7; bin 2: ≥ -0.7

>  <primarySequence>
AUUAAGCAAUAUUACGUGCA

>  <label>
bin 2

$$$$
>  <primarySequence>
GGAAAGCAAUAUUACGGGCC

>  <label>
bin 0

$$$$
>  <primarySequence>
UAGCAGCAAUAUUACGCCGG

>  <label>
bin 2

$$$$
>  <primarySequence>
ACCGAGCAAUAUUACGAGAG

>  <label>
bin 0

$$$$
>  <primarySequence>
CUUCAGCAAUAUUACGCUGU

>  <label>
bin 0

$$$$
>  <primarySequence>
AUUAAGCAAUAUUACGAGUU

>  <label>
bin 1

$$$$
>  <primarySequence>
CCCCAGCAAUAUUACGGAUG

>  <label>
bin 1

$$$$
>  <primarySequence>
AUCAAGCAAUAUUACGCCCG

>  <label>
bin 2

$$$$
>  <primarySequence>
GUCUAGCAAUAUUACGUUCA

>  <label>
bin 2

$$$$
>  <primarySequence>
GUAGAGCAAUAUUACGUAAU

>  <label>
bin 1

$$$$
>  <primarySequence>
UGGUAGCAAUAUUACGGACG

>  <label>
bin 2

$$$$
>  <primarySequence>
GGUGAGCAAUAUUACGGAUU

>  <label>
bin 1

$$$$
>  <primarySequence>
CAACAGCAAUAUUACGGGCA

>  <label>
bin 1

$$$$
>  <primarySequence>
UCGUAGCAAUAUUACGACAA

>  <label>
bin 1

$$$$
>  <primarySequence>
CUCUAGCAAUAUUACGACGU

>  <label>
bin 0

$$$$
>  <primarySequence>
GCCUAGCAAUAUUACGACAU

>  <label>
bin 1

$$$$
>  <primarySequence>
AAGAAGCAAUAUUACGCCUU

>  <label>
bin 0

$$$$
>  <primarySequence>
CCAGAGCAAUAUUACGACGA

>  <label>
bin 0

$$$$
>  <primarySequence>
UGGGAGCAAUAUUACGACUU

>  <label>
bin 1

$$$$
>  <primarySequence>
GAAUAGCAAUAUUACGAUUA

>  <label>
bin 2

$$$$
>  <primarySequence>
CACUAGCAAUAUUACGCUGC

>  <label>
bin 0

$$$$
>  <primarySequence>
GGGCAGCAAUAUUACGACCA

>  <label>
bin 2

$$$$
>  <primarySequence>
UUACAGCAAUAUUACGGUUA

>  <label>
bin 2

$$$$
>  <primarySequence>
GGAUAGCAAUAUUACGUAAU

>  <label>
bin 2

$$$$
>  <primarySequence>
UUUCAGCAAUAUUACGUAAA

>  <label>
bin 2

$$$$
>  <primarySequence>
GGUCAGCAAUAUUACGGCGC

>  <label>
bin 2

$$$$
>  <primarySequence>
AUCCAGCAAUAUUACGCUGC

>  <label>
bin 1

$$$$
>  <primarySequence>
AUUGAGCAAUAUUACGUGGA

>  <label>
bin 1

$$$$
>  <primarySequence>
AACGAGCAAUAUUACGUUGC

>  <label>
bin 0

$$$$
>  <primarySequence>
CGGCAGCAAUAUUACGCGAC

>  <label>
bin 1

$$$$
